Experimental Target: T1, Lsb3, P43603
T1 sequence (P43603 385-451, looked up): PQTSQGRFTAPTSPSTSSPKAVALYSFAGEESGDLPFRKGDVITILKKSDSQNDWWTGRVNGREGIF
Protocol Description: SPOT array
Condition Details: median of control spots 406
Measured Parameter: SPOT intensity

| Binder | SPOT intensity |
| --- | --- |
| NRPAIRIPSLKKPAL | 0 |

P: AERNYAPRLPRRETS
Q: PPIPIVPSSPAPPLP
R: ATKSASPTLPTRRSR
S: ITHRLRISIPGITGR
T: GKFIPSRPAPKPPSS
Problem: Hey, quick one: sort these by SPOT intensity, largest value first please. The labels, placed in the requested order, form the answer.
Result: R, P, T, S, Q

a: YHSRRHPLALGFKYV
b: RKNRAPPQRPRFNRD
c: RKRAPTPPAPSRSEK
d: NENKKLPPAPTVFGL
e: QLLNPNRRAPRRPLS
Problem: Hey, quick one: sort these by SPOT intensity, largest value first please. The labels, placed in the requested order, form the answer.
Result: b, e, c, d, a
(b: 68, e: 43, c: 8, d: 1, a: 0)

1: VPVAPPPPPASLGQS
2: VQKRKLPLPGSIASA
Problem: Task for the reader: decide whether 1 or 2 has the larger SPOT intensity. // return label of chosen record
Result: 2
(2: 1, 1: 0)

a: LRIKRKPVQTFFEFI
b: RMVRRRPLRVQFSAR
c: EVTPKVPERPSRRKT
d: SSAAPPPPPRRATPE
Problem: Form: Sort by [SPOT intensity] Order [ ascending ] The labels, placed in the requested order, form the answer.
Result: a, b, c, d

A: VPKEPAPAPPPEPDM
B: LFMKGTPEFPKSGFS
Problem: Task for the reader: decide whether A or B has the larger SPOT intensity. // return label of chosen record
Result: B
(B: 8, A: 0)

I: RRGPAPPPPPRASRP
II: IPSRPAPKPPSSASA
Problem: Task for the reader: decide whether I or II has the larger SPOT intensity. // return label of chosen record
Result: II
(II: 10, I: 0)

1: AAAPKHAPPPVPNET
2: RKQRSIPLSPIVPES
3: NLPKRKPPKLQGPFS
Problem: Hey, quick one: sort these by SPOT intensity, largest value first please. The labels, placed in the requested order, form the answer.
Result: 2, 3, 1
(2: 6, 3: 4, 1: 0)

A: RRLRDKYKLPIVDAD
B: SRQAIPPPVPNRPGG
C: RSKRLFPVRPMATAH
Problem: Hey, quick one: sort these by SPOT intensity, largest value first please. The labels, placed in the requested order, form the answer.
Result: B, C, A
(B: 658, C: 4, A: 0)

Hello, the source for this data is paper PMC2756588, in case you need it.
